target: FXR (Homo sapiens, UniProt Q96RI1); assay: AlphaScreen coactivator (SRC-1) recruitment assay on FXR; assay type: biochemical; conditions: AlphaScreen SRC-1 recruitment; compounds at 10 μM; CDCA = 100%
Sequence (Q96RI1 262-486 limits assumed): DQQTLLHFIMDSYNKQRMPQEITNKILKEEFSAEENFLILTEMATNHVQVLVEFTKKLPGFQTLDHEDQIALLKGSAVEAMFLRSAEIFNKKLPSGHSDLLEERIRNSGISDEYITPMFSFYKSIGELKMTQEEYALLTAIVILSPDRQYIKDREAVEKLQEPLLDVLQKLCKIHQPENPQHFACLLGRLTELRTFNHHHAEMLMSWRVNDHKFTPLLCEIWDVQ
readout label: FXR efficacy (% vs. CDCA)

{"compound": "CC[C@@H]1C2C[C@H](O)CC[C@]2(C)C2CC[C@@]3(C)C(CC[C@@H]3[C@H](C)CCOC(=O)C(C)(C)Oc3ccc(C(=O)c4ccc(Cl)cc4)cc3)C2[C@@H]1O (stereo partly shown)", "tested target": "FXR (Homo sapiens, UniProt Q96RI1)", "FXR efficacy (% vs. CDCA)": "14.0 ± 1.8%"}

Give FXR efficacy (% vs. CDCA) for each of the items listed below.
1. CC[C@@H]1C2C[C@H](O)CC[C@]2(C)C2CC[C@@]3(C)C(CC[C@@H]3[C@H](C)CCOC(=O)C(C)(C)CCCOc3cc(C)ccc3C)C2[C@@H]1O (stereo partly shown)
2. CC[C@@H]1C2C[C@H](OC(=O)C(C)(C)CCCOc3cc(C)ccc3C)CC[C@]2(C)C2CC[C@@]3(C)C(CC[C@@H]3[C@H](C)CCOC(=O)C(C)(C)CCCOc3cc(C)ccc3C)C2[C@@H]1O (stereo partly shown)
3. CC[C@H]1[C@@H](O)[C@@H]2[C@H](CC[C@]3(C)[C@@H]([C@H](C)CCO)CC[C@@H]23)[C@@]2(C)CC[C@@H](O)C[C@@H]12

(A)
4.1 ± 0.6%
5.1 ± 1.9%
153.0 ± 3.1%
